# Measurement target: human full length PIK3CA Wild-type (p110α/p85α complex) (Homo sapiens (Human), UniProt P42336)
# Sequence (P42336 whole entry): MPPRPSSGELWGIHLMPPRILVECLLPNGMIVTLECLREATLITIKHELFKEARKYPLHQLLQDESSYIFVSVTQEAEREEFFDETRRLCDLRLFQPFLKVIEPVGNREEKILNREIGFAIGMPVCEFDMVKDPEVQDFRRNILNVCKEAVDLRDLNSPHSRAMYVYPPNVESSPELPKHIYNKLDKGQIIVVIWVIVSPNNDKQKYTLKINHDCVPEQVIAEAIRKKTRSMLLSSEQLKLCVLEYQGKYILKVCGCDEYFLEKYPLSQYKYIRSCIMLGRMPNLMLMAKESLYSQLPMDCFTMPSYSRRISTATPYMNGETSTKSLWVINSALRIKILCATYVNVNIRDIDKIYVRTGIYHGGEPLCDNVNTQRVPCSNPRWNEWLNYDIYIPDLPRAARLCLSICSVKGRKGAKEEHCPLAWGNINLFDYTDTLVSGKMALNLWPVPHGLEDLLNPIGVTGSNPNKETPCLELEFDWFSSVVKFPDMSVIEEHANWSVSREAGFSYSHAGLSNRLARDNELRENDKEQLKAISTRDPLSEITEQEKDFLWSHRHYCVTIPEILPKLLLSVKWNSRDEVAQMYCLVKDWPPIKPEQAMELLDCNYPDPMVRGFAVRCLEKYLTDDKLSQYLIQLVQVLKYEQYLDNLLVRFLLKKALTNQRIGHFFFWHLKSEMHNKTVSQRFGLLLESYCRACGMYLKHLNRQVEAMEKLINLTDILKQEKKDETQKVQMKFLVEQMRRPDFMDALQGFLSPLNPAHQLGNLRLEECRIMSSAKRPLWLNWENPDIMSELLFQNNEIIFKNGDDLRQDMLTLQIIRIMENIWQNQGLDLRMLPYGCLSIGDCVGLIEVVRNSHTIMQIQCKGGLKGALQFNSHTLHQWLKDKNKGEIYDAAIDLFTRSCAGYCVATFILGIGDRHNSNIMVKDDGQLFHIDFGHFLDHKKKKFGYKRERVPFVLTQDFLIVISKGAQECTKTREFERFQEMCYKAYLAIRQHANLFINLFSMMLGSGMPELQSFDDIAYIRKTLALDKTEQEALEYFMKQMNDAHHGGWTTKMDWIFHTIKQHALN
# Sequence (P27986 whole entry partner): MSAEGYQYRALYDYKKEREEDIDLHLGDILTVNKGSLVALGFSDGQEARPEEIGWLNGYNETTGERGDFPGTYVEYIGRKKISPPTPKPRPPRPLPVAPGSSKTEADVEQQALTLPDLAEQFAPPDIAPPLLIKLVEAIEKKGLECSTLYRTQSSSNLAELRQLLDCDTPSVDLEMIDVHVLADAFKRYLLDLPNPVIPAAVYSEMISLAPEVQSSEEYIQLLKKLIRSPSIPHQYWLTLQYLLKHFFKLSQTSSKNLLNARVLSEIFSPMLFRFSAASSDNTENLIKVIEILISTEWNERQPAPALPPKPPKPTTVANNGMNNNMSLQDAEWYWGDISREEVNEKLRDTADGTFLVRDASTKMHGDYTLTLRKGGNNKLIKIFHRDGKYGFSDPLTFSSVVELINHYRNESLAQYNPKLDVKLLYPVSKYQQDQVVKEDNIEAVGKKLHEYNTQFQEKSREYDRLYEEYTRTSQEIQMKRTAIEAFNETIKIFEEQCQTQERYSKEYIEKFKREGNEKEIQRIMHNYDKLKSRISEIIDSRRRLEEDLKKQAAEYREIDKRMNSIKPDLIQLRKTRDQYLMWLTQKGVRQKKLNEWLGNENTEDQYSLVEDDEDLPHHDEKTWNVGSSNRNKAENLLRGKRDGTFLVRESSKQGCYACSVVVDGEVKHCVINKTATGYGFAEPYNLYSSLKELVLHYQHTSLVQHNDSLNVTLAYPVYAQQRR
# Method notes: PI3K-Alpha kinase (PIK3CA) activity, wild-type, Transcreener ADP2 FI assay
# Condition description: PI3K-α (PIK3CA) wild-type, biochemical
The following molecules are listed with their measured IC50 values.

>  <Molecule>
Cc1cc(C(C)Nc2ccccc2-c2nnn[nH]2)c2oc(N3CCC(C)(C)CC3)cc(=O)c2c1 (stereo not drawn)

>  <IC50>
0.5 to 1 µM

$$$$
>  <Molecule>
Cc1cc(C(C)Nc2ccc(F)cc2C(=O)O)c2oc(N3Cc4ccc(F)cc4C3)cc(=O)c2c1 (single isomer, unassigned)

>  <IC50>
< 0.5 µM

$$$$
>  <Molecule>
Cc1cc(C(C)Nc2sc(Cl)nc2C(=O)O)c2oc(N3Cc4ccccc4C3)cc(=O)c2c1 (stereo not drawn)

>  <IC50>
0.5 to 1 µM

$$$$
>  <Molecule>
Cc1cc(C(C)Nc2ccc(Cl)nc2C(=O)O)c2oc(N3Cc4ccc5c(c4C3)OCO5)cc(=O)c2c1 (stereo not drawn)

>  <IC50>
0.5 to 1 µM

$$$$
>  <Molecule>
Cc1c(N2CCC(F)(F)CC2)oc2c(C(C)Nc3ccccc3C(=O)O)cc(F)cc2c1=O (single isomer, unassigned)

>  <IC50>
< 0.5 µM

$$$$
>  <Molecule>
Cc1cc(C(C)Nc2ccccc2C(=O)O)c2oc(N3Cc4ccc(F)cc4C3)cc(=O)c2c1 (single isomer, unassigned) [Example 124]

>  <IC50>
> 10 µM

$$$$
>  <Molecule>
Cc1cc(C(C)Nc2cccc3cc(C(=O)O)sc23)c2oc(N3CCC(C)(C)CC3)cc(=O)c2c1 (stereo not drawn)

>  <IC50>
1 to 5 µM

$$$$
>  <Molecule>
Cc1cc(C(C)Nc2ccccc2C(=O)O)c2oc(N3CC4(CCCCC4)C3)cc(=O)c2c1 (stereo not drawn)

>  <IC50>
5 to 10 µM

$$$$
>  <Molecule>
CCC1(c2ccccc2)CN(c2cc(=O)c3cc(C)cc(C(C)Nc4ccccc4C(=O)O)c3o2)C1 (single isomer, unassigned)

>  <IC50>
0.5 to 1 µM

$$$$
>  <Molecule>
Cc1cc(C(C)Nc2ccccc2C(=O)O)c2oc(N3CCOC(c4ccc(S(C)(=O)=O)cc4)C3)cc(=O)c2c1 (stereo not drawn)

>  <IC50>
1 to 5 µM

$$$$
>  <Molecule>
Cc1cc(C(C)Nc2ccccc2-c2noc(=O)[nH]2)c2oc(N3CCC(C)(C)CC3)cc(=O)c2c1 (stereo not drawn)

>  <IC50>
1 to 5 µM

$$$$
>  <Molecule>
Cc1cc(C(C)Nc2ccccc2C(=O)O)c2oc(N3CCCC4(CCOCC4)C3)cc(=O)c2c1 (stereo not drawn)

>  <IC50>
5 to 10 µM

$$$$
>  <Molecule>
Cc1c(N2Cc3ccc(F)cc3C2)oc2c(C(C)Nc3ccccc3C(=O)O)cc(F)cc2c1=O (single isomer, unassigned)

>  <IC50>
0.5 to 1 µM

$$$$
>  <Molecule>
Cc1cc([C@@H](C)Nc2ccccc2C(=O)O)c2oc(N3CCCCC3)cc(=O)c2c1

>  <IC50>
1 to 5 µM

$$$$
>  <Molecule>
Cc1cc(C(C)Nc2ccccc2C(=O)O)c2oc(N3CCCC(C)(C)C3)cc(=O)c2c1 (stereo not drawn)

>  <IC50>
5 to 10 µM

$$$$
>  <Molecule>
Cc1cc(C(C)Nc2ccccc2C(=O)O)c2oc(N3Cc4ccccc4C3)cc(=O)c2c1 (single isomer, unassigned)

>  <IC50>
0.5 to 1 µM

$$$$
>  <Molecule>
Cc1cc(C(C)Nc2ccc(Cl)nc2C(=O)O)c2oc(N3CCC4(CC3)CC4)c(C)c(=O)c2c1 (stereo not drawn)

>  <IC50>
0.5 to 1 µM

$$$$
>  <Molecule>
Cc1cc(C(C)Nc2ccccc2C(=O)O)c2oc(N3CCc4ccccc4C3)cc(=O)c2c1 (stereo not drawn)

>  <IC50>
1 to 5 µM

$$$$
>  <Molecule>
Cc1cc(C(C)Nc2ccccc2C(=O)O)c2oc(N3CC4(CCN4c4ccccc4)C3)cc(=O)c2c1 (single isomer, unassigned)

>  <IC50>
1 to 5 µM

$$$$
>  <Molecule>
Cc1cc(C(C)Nc2ccccc2C(=O)O)c2oc(N3Cc4ccc(F)cc4C3)cc(=O)c2c1 (stereo not drawn) [Example 105]

>  <IC50>
5 to 10 µM

$$$$
>  <Molecule>
Cc1cc(C(C)Nc2ccccc2C(=O)O)c2oc(N3CCC(C(F)(F)F)CC3)cc(=O)c2c1 (stereo not drawn)

>  <IC50>
5 to 10 µM

$$$$
>  <Molecule>
Cc1cc(C(C)Nc2ccccc2C(=O)O)c2oc(N3CCC(C)(C)CC3)c(-c3cnoc3)c(=O)c2c1 (single isomer, unassigned) [Example 53]

>  <IC50>
0.5 to 1 µM

$$$$
>  <Molecule>
Cc1cc(C(C)Nc2cccc(F)c2C(=O)O)c2oc(N3Cc4ccc(F)cc4C3)c(C)c(=O)c2c1 (single isomer, unassigned)

>  <IC50>
5 to 10 µM

$$$$
>  <Molecule>
CC(Nc1ccccc1C(=O)O)c1cc(C(F)(F)F)cc2c(=O)cc(N3CCC(C)(C)CC3)oc12 (stereo not drawn)

>  <IC50>
1 to 5 µM

$$$$
>  <Molecule>
Cc1cc(C(C)Nc2ccccc2S(=O)(=O)C(F)F)c2oc(N3CCC(C)(C)CC3)cc(=O)c2c1 (stereo not drawn)

>  <IC50>
0.5 to 1 µM

$$$$
>  <Molecule>
Cc1c(N2Cc3ccccc3C2)oc2c(C(C)Nc3ccccc3C(=O)O)cc(C(F)(F)F)cc2c1=O (single isomer, unassigned)

>  <IC50>
0.5 to 1 µM

$$$$
>  <Molecule>
Cc1cc(C(C)Nc2ccccc2C(=O)O)c2oc(N3CCC(c4ccncc4)C3)cc(=O)c2c1 (single isomer, unassigned)

>  <IC50>
> 10 µM

$$$$

Source of measurements: patent US11649227B2
